Values compiled from paper PMC10286367.

Assign response (relative protein level (HA / Gsk3β)) to each entry below.
B1: mouse full-length p65-HA [mouse] / glycogen synthase kinase 3β (Gsk3β) [mouse (endogenous in hippocampal tissue)] (parent)
chain 1: MDDLFPLIFPSEPAQASGPYVEIIEQPKQRGMRFRYKCEGRSAGSIPGERSTDTTKTHPTIKINGYTGPGTVRISLVTKDPPHRPHPHELVGKDCRDGYYEADLCPDRSIHSFQNLGIQCVKKRDLEQAISQRIQTNNNPFHVPIEEQRGDYDLNAVRLCFQVTVRDPAGRPLLLTPVLSHPIFDNRAPNTAELKICRVNRNSGSCLGGDEIFLLCDKVQKEDIEVYFTGPGWEARGSFSQADVHRQVAIVFRTPPYADPSLQAPVRVSMQLRRPSDRELSEPMEFQYLPDTDDRHRIEEKRKRTYETFKSIMKKSPFNGPTEPRPPTRRIAVPTRNSTSVPKPAPQPYTFPASLSTINFDEFSPMLLPSGQISNQALALAPSSAPVLAQTMVPSSAMVPLAQPPAPAPVLTPGPPQSLSAPVPKSTQAGEGTLSEALLHLQFDADEDLGALLGNSTDPGVFTDLASVDNSEFQQLLNQGVSMSHSTAEPMLMEYPEAITRLVTGSQRPPDPAPTPLGTSGLPNGLSGDEDFSSIADMDFSALLSQISS
chain 2: MSGRPRTTSFAESCKPVQQPSAFGSMKVSRDKDGSKVTTVVATPGQGPDRPQEVSYTDTKVIGNGSFGVVYQAKLCDSGELVAIKKVLQDKRFKNRELQIMRKLDHCNIVRLRYFFYSSGEKKDEVYLNLVLDYVPETVYRVARHYSRAKQTLPVIYVKLYMYQLFRSLAYIHSFGICHRDIKPQNLLLDPDTAVLKLCDFGSAKQLVRGEPNVSYICSRYYRAPELIFGATDYTSSIDVWSAGCVLAELLLGQPIFPGDSGVDQLVEIIKVLGTPTREQIREMNPNYTEFKFPQIKAHPWTKVFRPRTPPEAIALCSRLLEYTPTARLTPLEACAHSFFDELRDPNVKLPNGRDTPALFNFTTQELSSNPPLATILIPPHARIQAAASPPANATAASDTNAGDRGQTNNAASASASNST

Variants of: B1
Test: co-IP with Gsk3β followed by WB, band quantification
Settings: with glycogen synthase kinase 3β (Gsk3β) [mouse (endogenous in hippocampal tissue)]; p65-HA variant co-expressed with Ogt-Flag and Gsk3β; n = 3 independent experiments; parent: 1; read off a plot

Answered examples (2):
In [3]: df
Out[3]:
             var  measurement
0  chain 1 S374A          1.1
1  chain 1 S370A            1

Hi team, please reply with response (relative protein level (HA / Gsk3β)) for each item in this list.
1. chain 1 S384A
2. chain 1 S396A

Resp:
1: 2.4; 2: 1
